protocol: NCI Yeast Anticancer Drug Screen. Data for the sgs1 strain (AID 173);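 note: 0% = growth of vehicle-only control cultures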
statedConditions: S. cerevisiae sgs1 mutant, at 33.0 µM, active compounds read high
Compounds without any hit were thinned out: in the full panel of roughly 79,000, 15% have a hit. Calls of active or inactive are those of the source. Cut-off read from the data, not from the text of the source: active = growth inhibition above about 70%; inactive = the rest.
reportedEndpoint: growth inhibition

Worked set:
compound: O=[N+]([O-])c1ccc(C(c2c[nH]c3ccccc23)c2c[nH]c3ccccc23)cc1
growth inhibition: 95% (active)

compound: O=C(O)CNC(c1ccccc1)(c1ccccc1)c1ccccc1
growth inhibition: 89% (active)

compound: CCOC(=O)/C(=C\c1cccc(C)c1)C(C)=O
growth inhibition: 94% (active)

compound: COc1ccc2nc3cccc([N+](=O)[O-])c3c(NCCNCCN(C)C)c2c1
growth inhibition: -1% (inactive)

compound: CCOC(=S)SSSC(=S)OCC
growth inhibition: 98% (active)

I need growth inhibition for every entry listed below, if you could help.
1. CC(=O)O/N=C1C=C/C(=C(/C#N)c2ccccc2)C=C/1C
2. Cc1ccc([N+](=O)[O-])c2c(NCCC[N+](C)(C)[O-])c3ccccc3nc12
3. CCc1c(Cl)c(C)c(Cl)c(O)c1Cl
4. CC(C)S(=O)(=O)/C=C\S(=O)(=O)C(C)C

Reply text:
["99% (active)", "66% (inactive)", "96% (active)", "80% (active)"]

I need growth inhibition for every entry listed below, if you could help.
1. CC(C)(CN1CCCCC1)C(=O)CC(SCCS(=O)(=O)O)c1ccccc1 (configuration not stated)
2. COc1ccc2c(c1)CCCC(Br)C2=O (configuration not stated)
3. CC12CCC(CC(=O)/C1=C(/Br)I)C2(C)C (configuration not stated)

Reply text:
["19% (inactive)", "74% (active)", "21% (inactive)"]

----------
Please go through the items and note down their growth inhibition.
protocol: NCI Yeast Anticancer Drug Screen. Data for the mlh1 rad18 strain (AID 175)
statedConditions: S. cerevisiae mlh1 rad18 strain growth inhibition; at 50.0 µM; active compounds read high
About 79,000 compounds went through this panel and 15% of them were active in at least one assay; those are over-represented in the sample as a whole.
Give bare numbers, in %.

Worked set:
molecule: COC(=O)C(Cl)(Cl)N=Nc1c(Cl)cc(Cl)c(C)c1Cl
growth inhibition [%]: 93.2
//
molecule: CCCCCCCN1C(=O)c2ccccc2C1=O
growth inhibition [%]: 86.6

I need growth inhibition for every entry listed below, if you could help.
1. COc1cc([N+](=O)[O-])c2ncccc2c1Br
2. O=Cc1ccccc1C=O
3. CC1(C2CC2)C(C#N)(C#N)C1(C#N)C#N

Reply text:
29.3
82
70.9

I need growth inhibition for every entry listed below, if you could help.
1. Cc1cccc(C)c1NC(=O)CCC(=O)C(C)C(=O)c1ccc(O)cc1 (stereo not drawn)
2. Cn1c(-c2ccc(/C=N\N3CCN(/N=C/c4ccc(-c5c[n+]6ccsc6n5C)cc4)CC3)cc2)c[n+]2ccsc12
3. O=[N+]([O-])[O][Sn]([O][Sn]([O][N+](=O)[O-])([c]1ccccc1)[c]1ccccc1)([c]1ccccc1)[c]1ccccc1
4. CCC[CH2][Ge]([CH2]CCC)([CH2]CCC)[O]C(=O)C(O)c1ccccc1 (stereo not drawn)

Reply text:
1. 6.95
2. -10.8
3. 68
4. 89.7

I need growth inhibition for every entry listed below, if you could help.
1. NNc1ccccc1-c1nc2ccccc2[nH]1
2. O/N=c1/ccn(O)c2ccccc12
3. N#CCCC1C(C#N)C2(Cl)CC1(Cl)C(Cl)=C2Cl (stereo not drawn)
4. CCCCCCCSCC1C(=O)C23C(O)C1CCC2C12COC3(O)C(O)C1C(C)(C)CCC2O (stereo not drawn)

Reply text:
1. 91
2. 97.5
3. 86.8
4. 88.8

----------
protocol: NCI Yeast Anticancer Drug Screen. Data for the bub3 strain (AID 167)
statedConditions: S. cerevisiae bub3 mutant strain, at 50.0 µM
Compounds without any hit were thinned out: in the full panel of roughly 79,000, 15% have a hit. The source made the active and inactive calls. No stated cut-off is given here; in the data, active means growth inhibition above about 70%; inactive means the rest.
API: response.call in TRUE = active, FALSE = inactive

These solved cases illustrate the format of a correct answer.
compound: Cc1ccc(S(=O)(=O)N/N=C/C(Br)=C(/Br)C(=O)O)cc1
cat: FALSE
//
compound: COc1c2c(c3c(c1CCC(=O)O)OC(C)(C)C=C3)OC(C)(C)C=C2
cat: TRUE
//
compound: CCN1CCC(O)(c2ccc(Oc3ccc(Cl)cc3)cc2)C(C(=O)c2ccc(Oc3ccc(Cl)cc3)cc2)C1 (configuration not stated)
cat: TRUE
//
compound: CC1=CC(C)(C)SC(SSSC2=NC(C)=CC(C)(C)S2)=N1
cat: FALSE
//
compound: CCCCCCCCCCCCCCN
cat: TRUE
//
compound: CCN(CC)CCNc1ccc(C)c2sc3ccc(O)cc3c(=O)c12
cat: TRUE
//
compound: Cc1c(C(=O)/C=C/c2ccccc2[N+](=O)[O-])[n+](=O)c2ccccc2n1[O-]
cat: TRUE
//
compound: C=CC(C)(C)N1C(=O)C(C(C)=O)=C(O)C1Cc1c[nH]c2ccccc12 (configuration not stated)
cat: FALSE

Inquiry: Status in this test for CC1=CC(=C(c2ccc(N)c(C)c2)c2ccc(N)c(C)c2)C=CC1=N ?
Reply text: TRUE

----------
protocol: NCI Yeast Anticancer Drug Screen. Data for the rad50EPP+ strain (AID 151);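 note: 0% = growth of vehicle-treated control cultures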
statedConditions: S. cerevisiae rad50 mutant strain, at 100.0 µM
Compounds without any hit were thinned out: in the full panel of roughly 79,000, 15% have a hit. Active and inactive are the calls of the source. No stated cut-off is given here; in the data, active means growth inhibition above about 70%; inactive means the rest.
API: response.call in active, inactive

These solved cases illustrate the format of a correct answer.
compound: O=C1Oc2ccccc2C(=O)/C1=C/N1C(=O)N/C(=C\c2ccccc2Br)C1=O
cat: inactive

compound: Nc1cccc(-c2cc[cH-]c2)c1.[Fe+2].c1cc[cH-]c1
cat: active

compound: COC(=O)C1CCCCC1C(=O)Nc1ccccc1 (stereo not drawn)
cat: inactive

compound: COc1cc(OC)c(CSCC(NC(=O)OCC2c3ccccc3-c3ccccc32)C(=O)O)c(OC)c1 (stereo not drawn)
cat: inactive

Inquiry: Status in this test for CC1(C)C(O)OC(O)C1(C)C (stereo not drawn) ?
Reply text: inactive

Inquiry: Status in this test for CCC(C)(C)c1ccc(Oc2ccccc2)c(N)c1 ?
Reply text: active

----------
protocol: NCI Yeast Anticancer Drug Screen. Data for the mlh1 strain (AID 171);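 note: 0% = growth of vehicle-treated control cultures of the same strain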
statedConditions: S. cerevisiae mlh1 strain growth inhibition; at 33.0 µM; active compounds read high
The panel holds about 79,000 compounds, 15% with a hit somewhere; the sample as a whole holds those more often.
# label = Satisfied if growth inhibition >= 60% else Not satisfied

These solved cases illustrate the format of a correct answer.
compound: Cc1ccc(S(=O)(=O)Nc2cccc3cccnc23)cc1
cat: Satisfied
//
compound: CC1(c2ccccc2)O[C@@H]2C[C@H]3[C@@H]4CCC5=CC(=O)C=C[C@]5(C)[C@@]4(F)[C@@H](O)C[C@]3(C)[C@]2(C(=O)CO)O1 (stereo not given in full)
cat: Satisfied
//
compound: O=[N+]([O-])c1ccc(C(c2c[nH]c3ccccc23)c2c[nH]c3ccccc23)cc1
cat: Satisfied

Inquiry: Given the entry O=[N+]([O-])c1ccc2[nH]c3c(-c4ccccc4)nccc3c2c1 , answer whether its growth inhibition meets or surpasses 60%.
Reply text: Satisfied

Inquiry: Given the entry CC(CC/C(=N/O)c1ccccc1)(CC/C(=N\O)c1ccccc1)[N+](=O)[O-] (stereo not given) , answer whether its growth inhibition meets or surpasses 60%.
Reply text: Not satisfied

Inquiry: Given the entry OC1(c2ccccc2)C2CC=CC2C1(c1ccccc1)c1ccccc1 (stereo not given) , answer whether its growth inhibition meets or surpasses 60%.
Reply text: Not satisfied

Inquiry: Given the entry CCC(OC(C)=O)C1CC(C(C)C)CCC1C (stereo not given) , answer whether its growth inhibition meets or surpasses 60%.
Reply text: Not satisfied

Inquiry: Given the entry CC(C)OC(=O)NNc1cccc(Cl)c1 , answer whether its growth inhibition meets or surpasses 60%.
Reply text: Satisfied

Inquiry: Given the entry CCO/C=C1\SC(=S)N(c2ccc(OCC)cc2)C1=O , answer whether its growth inhibition meets or surpasses 60%.
Reply text: Not satisfied

----------
protocol: NCI Yeast Anticancer Drug Screen. Data for the mgt1 strain (AID 153)
statedConditions: S. cerevisiae mgt1 mutant growth inhibition; at 1.2 µM; active compounds read high
The panel holds about 79,000 compounds, 15% with a hit somewhere; the sample as a whole holds those more often.
reportedEndpoint: growth inhibition (%)
Numbers only, in %.

I need growth inhibition for every entry listed below, if you could help.
1. CC1=CN2C(c3ccccc3)=NON(c3ccc(C)cn3)C2C=C1 (stereo unspecified)
2. OC1(C#CI)CCCCC1
3. CCC(=O)Nc1ccc(N=NN(C)C)cc1
4. NNc1ccccc1-c1nc2ccccc2[nH]1

Reply text:
[-2, -7, -2, -3]

I need growth inhibition for every entry listed below, if you could help.
1. CC(=O)CCC1=C(C)C(=O)C(=O)C(C)=C1O
2. Nc1cccc(-c2cc[cH-]c2)c1.[Fe+2].c1cc[cH-]c1
3. CCC[CH2][Ge]([CH2]CCC)([CH2]CCC)[O]C(=O)C(O)c1ccccc1 (stereo unspecified)
4. Cc1cccc2c(NCCCN(C)C)c3c([N+](=O)[O-])ccc(C)c3nc12
5. CC(C)OP(=O)(OC(C)C)C(=NCCO)NNc1ccc([N+](=O)[O-])cc1
6. ClCCCOc1c(Cl)cc(Cl)cc1Cl
7. CC(=O)CC(c1ccccc1)c1c(O)c2ccccc2oc1=O (stereo unspecified)
8. c1ccc([P+](CCN2Cc3ccccc3C2)(c2ccccc2)c2ccccc2)cc1

Reply text:
-17
-4
-1
8
-34
0
13
-19

I need growth inhibition for every entry listed below, if you could help.
1. COc1ccc(C2CC(C)(N3CCCC3)Oc3cc4c(cc32)OCO4)cc1 (stereo unspecified)
2. O=C(C#Cc1ccccc1)Nc1ccccc1
3. CC(C)N(CCCNc1c2ccccc2nc2cccc([N+](=O)[O-])c12)C(C)C
4. O=[N+]([O-])c1ccc(/C=C\c2ccc3c(c2)OCO3)c([N+](=O)[O-])c1

Reply text:
[-1, -5, -1, -2]

I need growth inhibition for every entry listed below, if you could help.
1. CC1=COC2=C(C)C(=O)C(=O)c3c(C)ccc1c32
2. NC(=O)NC1C(c2ccccc2)=C1c1ccccc1
3. NCCCSc1ccccc1
4. CCCCCCCCCCCCOCCOCCOCC(N)=O

Reply text:
[41, 0, -3, 9]
